Record form. Attribute: inhibition at 200 µM. Fill in for each entry.
Target: ovine COX-1 (Ovis aries)
Construct: purchased Cayman Chemical Co., Ann Arbor, MI, USA
Sequence (P05979 25-600): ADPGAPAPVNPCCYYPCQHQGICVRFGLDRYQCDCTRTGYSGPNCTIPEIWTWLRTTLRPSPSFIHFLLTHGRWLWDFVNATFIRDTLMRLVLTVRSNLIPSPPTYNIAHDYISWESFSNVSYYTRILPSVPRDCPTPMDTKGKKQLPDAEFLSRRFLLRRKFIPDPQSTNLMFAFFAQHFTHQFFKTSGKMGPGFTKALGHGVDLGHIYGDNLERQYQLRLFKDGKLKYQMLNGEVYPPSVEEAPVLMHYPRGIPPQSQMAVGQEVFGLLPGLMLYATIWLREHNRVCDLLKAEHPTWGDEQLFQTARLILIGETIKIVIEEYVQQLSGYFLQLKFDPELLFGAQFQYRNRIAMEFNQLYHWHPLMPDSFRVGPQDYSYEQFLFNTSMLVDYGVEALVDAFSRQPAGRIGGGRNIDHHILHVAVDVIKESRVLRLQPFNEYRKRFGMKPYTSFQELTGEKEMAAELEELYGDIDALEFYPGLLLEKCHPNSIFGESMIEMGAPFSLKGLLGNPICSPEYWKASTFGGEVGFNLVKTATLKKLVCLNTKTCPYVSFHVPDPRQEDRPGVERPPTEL
Assay: COX inhibitor screening assay in vitro, COX-1
Assay type: biochemical
Details: at 200 μM; 0.1 μM arachidonic acid; read-out: COX-1 (%) inhibition
Response body: numeric value in %, unit text excluded.

Data point: O=c1/c(=C/c2ccc(O)cc2)sc2nc(C34CC5CC(CC(C5)C3)C4)nn12 ; inhibition at 200 µM = 93

Data point: COc1ccc(/C=c2\sc3nc(C45CC6CC(CC(C6)C4)C5)nn3c2=O)cc1 ; inhibition at 200 µM = 60.5

Data point: O=c1/c(=C/c2cccc(F)c2)sc2nc(C34CC5CC(CC(C5)C3)C4)nn12 ; inhibition at 200 µM = 36

Data provenance: paper PMC7866232
